assay: Chemical stability of the compound in phosphate buffer at pH 9 assessed as residual rate incubated for 2 weeks by HPLC analysis; type: physicochemical; conditions: read-out: Stability
Square brackets hold non-standard residues; d marks the D form. Peptide text beside a SMILES is read from it. * marks the point of attachment. Benzoyl(4-OPh(4-CONH2)) = NC(=O)c1ccc(Oc2ccc(C(=O)*)cc2)cc1; NMeE = CN[C@@H](CCC(=O)O)C(=O)O; β3hP = O=C(O)C[C@@H]1CCCN1; Dab = NCC[C@H](N)C(=O)O; Ava = NCCCCC(=O)O
Consider the following molecules; for each one, report its remaining at 336 h.
One number for each entry, in %.

Known remaining at 336 h results, listed for orientation:
CC[C@H](C)[C@@H](C(=O)NCCCCC(N)=O)N(C)C(=O)[C@H](CC(C)C)NC(=O)[C@H](CCN)NC(=O)CC[C@@H](NS(=O)(=O)c1ccc(NC(=O)c2ccc(C(N)=O)cc2)cc1)C(=O)O; 47.6
CC(C)C[C@H](NC(=O)[C@H](CCN)NC(=O)[C@H](CC(=O)O)NC(=O)[C@H](CCC(=O)O)NC(=O)CCCCNC(=O)c1ccc(Oc2ccc(C(N)=O)cc2)cc1)C(=O)N(C)[C@@H](CCC(=O)O)C(=O)N1CCC[C@H]1CC(N)=O ({Benzoyl(4-OPh(4-CONH2))-Ava}-ED[Dab]L[NMeE][β3hP]-NH2); 87.7

Please examine the following record next.
Q: Entry `CC(C)C[C@H](NC(=O)[C@@H]1C[C@H](N)CN1C(=O)CC[C@@H](NS(=O)(=O)c1ccc(NC(=O)c2ccc(C(N)=O)cc2)cc1)C(=O)O)C(=O)N(C)[C@@H](CCC(=O)O)C(=O)NCCCCC(N)=O` : reported remaining at 336 h = ?
Result: 98.1

---

molecular target: Matrix metalloproteinase-9 (Homo sapiens, UniProt P14780); assay: Inhibition of human recombinant MMP9 using MOCAc-Lys-Pro-Leu-Gly-Leu-A2pr(Dnp)-Ala-Arg-N2 as substrate preincubated for 15 mins followed by substrate addition and measured after 120 mins by fluorescence based assay
Sequence (P14780 whole entry): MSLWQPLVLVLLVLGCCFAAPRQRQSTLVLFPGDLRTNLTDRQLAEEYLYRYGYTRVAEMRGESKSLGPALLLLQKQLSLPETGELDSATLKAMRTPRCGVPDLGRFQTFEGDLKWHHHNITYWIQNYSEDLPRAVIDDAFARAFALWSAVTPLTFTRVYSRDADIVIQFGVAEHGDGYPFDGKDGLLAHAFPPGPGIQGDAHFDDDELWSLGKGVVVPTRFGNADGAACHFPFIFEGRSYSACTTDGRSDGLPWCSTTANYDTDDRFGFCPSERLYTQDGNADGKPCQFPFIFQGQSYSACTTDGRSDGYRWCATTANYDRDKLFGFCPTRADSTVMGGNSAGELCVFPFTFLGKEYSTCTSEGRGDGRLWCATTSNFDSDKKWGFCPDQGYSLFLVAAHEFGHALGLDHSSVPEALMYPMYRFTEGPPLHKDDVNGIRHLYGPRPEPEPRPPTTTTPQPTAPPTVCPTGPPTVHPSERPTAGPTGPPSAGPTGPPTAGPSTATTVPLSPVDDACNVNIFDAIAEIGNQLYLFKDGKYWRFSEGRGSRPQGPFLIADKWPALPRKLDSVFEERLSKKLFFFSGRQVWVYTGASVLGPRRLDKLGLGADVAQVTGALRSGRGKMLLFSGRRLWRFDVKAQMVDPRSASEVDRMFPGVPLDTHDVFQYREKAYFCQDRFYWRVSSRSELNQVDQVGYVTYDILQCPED
READOUT KIND: Ki (nM)
Numbers only, in nM.

Q: Identify the measured Ki of `CC(C)C[C@H](NC(=O)[C@@H]1C[C@H](N)CN1C(=O)CC[C@@H](NS(=O)(=O)c1ccc(NC(=O)c2ccc(C(N)=O)cc2)cc1)C(=O)O)C(=O)N(C)[C@@H](CCC(=O)O)C(=O)NCCCCC(N)=O` for Matrix metalloproteinase-9 (Homo sapiens, UniProt P14780).
Result: 1900

---

target: Stromelysin-1 (Homo sapiens); assay: Inhibition of human recombinant MMP3 using MOCAc-Lys-Pro-Leu-Gly-Leu-A2pr(Dnp)-Ala-Arg-N2 as substrate preincubated for 15 mins followed by substrate addition and measured after 120 mins by fluorescence based assay
Sequence (P08254 whole entry): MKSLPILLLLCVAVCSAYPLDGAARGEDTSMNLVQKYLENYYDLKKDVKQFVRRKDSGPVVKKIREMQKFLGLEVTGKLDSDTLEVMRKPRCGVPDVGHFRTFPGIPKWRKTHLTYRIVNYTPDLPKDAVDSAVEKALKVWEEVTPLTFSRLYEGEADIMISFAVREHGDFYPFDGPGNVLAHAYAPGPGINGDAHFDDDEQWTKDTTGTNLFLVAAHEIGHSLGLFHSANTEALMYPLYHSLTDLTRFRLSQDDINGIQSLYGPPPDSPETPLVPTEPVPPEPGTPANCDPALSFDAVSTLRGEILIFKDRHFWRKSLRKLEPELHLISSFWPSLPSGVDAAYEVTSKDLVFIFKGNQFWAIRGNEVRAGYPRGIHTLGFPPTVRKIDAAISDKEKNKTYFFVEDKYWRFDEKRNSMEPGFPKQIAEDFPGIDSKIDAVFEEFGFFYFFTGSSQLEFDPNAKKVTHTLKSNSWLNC
READOUT KIND: pKi
Answers are plain numbers, as −log10 of the molar value.

Q: Identify the measured pKi of `CC(C)C[C@H](NC(=O)[C@@H]1C[C@H](N)CN1C(=O)CC[C@@H](NS(=O)(=O)c1ccc(NC(=O)c2ccc(C(N)=O)cc2)cc1)C(=O)O)C(=O)N(C)[C@@H](CCC(=O)O)C(=O)NCCCCC(N)=O` for Stromelysin-1 (Homo sapiens).
Result: 5.31

---

target: 72 kDa type IV collagenase (Homo sapiens); experiment: Inhibition of recombinant human MMP2 using MOCAc-Lys-Pro-Leu-Gly-Leu-A2pr(Dnp)-Ala-Arg-N2 as substrate preincubated for 10 to 15 mins followed by substrate addition and measured after 60 to 120 mins by fluorescence based assay
READOUT KIND: pKi
Give bare numbers, as −log10 of the molar value.

Q: Entry `CC(C)C[C@H](NC(=O)[C@@H]1C[C@H](N)CN1C(=O)CC[C@@H](NS(=O)(=O)c1ccc(NC(=O)c2ccc(C(N)=O)cc2)cc1)C(=O)O)C(=O)N(C)[C@@H](CCC(=O)O)C(=O)NCCCCC(N)=O` : reported pKi = ?
Result: 10.47

---

biological target: Matrix metalloproteinase-14 (Homo sapiens); experiment: Inhibition of human recombinant MMP14 using MOCAc-Lys-Pro-Leu-Gly-Leu-A2pr(Dnp)-Ala-Arg-N2 as substrate preincubated for 15 mins followed by substrate addition and measured after 120 mins by fluorescence based assay
READOUT KIND: pKi
Answers are plain numbers, as −log10 of the molar value.

Q: Entry `CC(C)C[C@H](NC(=O)[C@@H]1C[C@H](N)CN1C(=O)CC[C@@H](NS(=O)(=O)c1ccc(NC(=O)c2ccc(C(N)=O)cc2)cc1)C(=O)O)C(=O)N(C)[C@@H](CCC(=O)O)C(=O)NCCCCC(N)=O` : reported pKi = ?
Result: 7.17

---

biological target: 72 kDa type IV collagenase (Homo sapiens, UniProt P08253); assay: Inhibition of recombinant human MMP2 using MOCAc-Lys-Pro-Leu-Gly-Leu-A2pr(Dnp)-Ala-Arg-N2 as substrate preincubated for 10 to 15 mins followed by substrate addition and measured after 60 to 120 mins by fluorescence based assay
Sequence (P08253 whole entry): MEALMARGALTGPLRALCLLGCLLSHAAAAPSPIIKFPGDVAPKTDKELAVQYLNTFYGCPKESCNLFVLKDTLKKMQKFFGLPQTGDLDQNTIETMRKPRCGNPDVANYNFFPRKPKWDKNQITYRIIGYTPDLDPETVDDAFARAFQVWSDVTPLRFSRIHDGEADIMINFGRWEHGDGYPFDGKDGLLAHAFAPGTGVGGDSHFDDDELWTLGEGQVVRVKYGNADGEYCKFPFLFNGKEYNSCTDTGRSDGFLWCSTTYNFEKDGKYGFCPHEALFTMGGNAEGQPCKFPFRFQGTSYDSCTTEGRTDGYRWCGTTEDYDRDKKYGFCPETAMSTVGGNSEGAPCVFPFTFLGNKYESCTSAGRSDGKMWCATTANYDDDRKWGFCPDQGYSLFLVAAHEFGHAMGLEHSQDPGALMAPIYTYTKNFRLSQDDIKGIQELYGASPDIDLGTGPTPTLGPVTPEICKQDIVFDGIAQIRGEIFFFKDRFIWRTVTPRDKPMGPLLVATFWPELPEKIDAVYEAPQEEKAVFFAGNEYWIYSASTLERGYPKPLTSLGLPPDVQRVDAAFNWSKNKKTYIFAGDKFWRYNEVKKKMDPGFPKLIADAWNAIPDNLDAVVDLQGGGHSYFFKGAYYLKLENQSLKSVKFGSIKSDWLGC
READOUT KIND: pKi
Numbers only, as −log10 of the molar value.

Q: Entry `H-ISYGNDALMP-OH` : reported pKi = ?
Result: 7.68

---

biological target: 72 kDa type IV collagenase (Homo sapiens, UniProt P08253); assay: Inhibition of recombinant human MMP2 using MOCAc-Lys-Pro-Leu-Gly-Leu-A2pr(Dnp)-Ala-Arg-N2 as substrate preincubated for 10 to 15 mins followed by substrate addition and measured after 60 to 120 mins by fluorescence based assay
Simple rule here: IC50 less than 0.2 nM is class 1, otherwise class 0.

Answered cases to consult:
CC[C@H](C)[C@@H](C(=O)NCCCC(N)=O)N(C)C(=O)[C@H](CC(C)C)NC(=O)[C@H](CCN)NC(=O)CC[C@@H](NS(=O)(=O)c1ccc(NC(=O)c2ccc(Cl)cc2)cc1)C(=O)O; class 1
CC[C@H](C)[C@@H](C(=O)NCCCCC(N)=O)N(C)C(=O)[C@H](CC(C)C)NC(=O)[C@H](CCN)NC(=O)CC[C@@H](NS(=O)(=O)c1ccc(NC(=O)c2ccc(Cl)cc2)cc1)C(=O)O; class 1
CC[C@H](C)[C@@H](C(=O)NCCCCC(N)=O)N(C)C(=O)[C@H](CC(C)C)NC(=O)[C@H](CCN)NC(=O)CC[C@@H](NS(=O)(=O)c1ccc(NC(=O)c2ccc(C(N)=O)cc2)cc1)C(=O)O; class 0
CC[C@H](C)[C@@H](C(=O)N1CCC[C@H]1CC(N)=O)N(C)C(=O)[C@H](CC(C)C)NC(=O)[C@H](CCN)NC(=O)CC[C@@H](NS(=O)(=O)c1ccc(NC(=O)c2ccc(C(N)=O)cc2)cc1)C(=O)O; class 0
CC[C@H](C)[C@@H](C(=O)NCCCCC(N)=O)N(C)C(=O)[C@H](CC(C)C)NC(=O)[C@@H]1CNCCN1C(=O)CC[C@@H](NS(=O)(=O)c1ccc(NC(=O)c2ccc(Cl)cc2)cc1)C(=O)O; class 0
CC(C)C[C@H](NC(=O)[C@@H]1CCCN1C(=O)CC[C@@H](NS(=O)(=O)c1ccc(NC(=O)c2ccc(C(N)=O)cc2)cc1)C(=O)O)C(=O)N(C)[C@@H](CCC(=O)O)C(=O)NCCCCC(N)=O; class 0

Q: Consider `CC[C@H](C)[C@@H](C(=O)N1CCC[C@H]1CC(N)=O)N(C)C(=O)[C@H](CC(C)C)NC(=O)[C@H](CCN)NC(=O)CC[C@@H](NS(=O)(=O)c1ccc(Oc2ccccc2)cc1)C(=O)O` . Does its IC50 lie strictly below 0.2 nM?
Result: class 0

Q: Consider `CC[C@H](C)[C@@H](C(=O)NCCCCCC(N)=O)N(C)C(=O)[C@H](CC(C)C)NC(=O)[C@H](CCN)NC(=O)CC[C@@H](NS(=O)(=O)c1ccc(NC(=O)c2ccc(Cl)cc2)cc1)C(=O)O` . Does its IC50 lie strictly below 0.2 nM?
Result: class 1

Q: Consider `CC[C@H](C)[C@@H](C(=O)N1CCC[C@H]1CC(N)=O)N(C)C(=O)[C@H](CC(C)C)NC(=O)[C@H](CCN)NC(=O)CC[C@@H](NS(=O)(=O)c1ccc(NC(=O)c2ccccc2)cc1)C(=O)O` . Does its IC50 lie strictly below 0.2 nM?
Result: class 0

Q: Consider `CC[C@H](C)[C@@H](C(=O)N1CCC[C@H]1CC(N)=O)N(C)C(=O)[C@H](CC(C)C)NC(=O)[C@H](CCN)NC(=O)CC[C@@H](NS(=O)(=O)c1ccc(NC(=O)c2ccc(Cl)cc2)cc1)C(=O)O` . Does its IC50 lie strictly below 0.2 nM?
Result: class 0

Q: Consider `CC[C@H](C)[C@@H](C(=O)N1CCC[C@H]1CC(N)=O)N(C)C(=O)[C@H](CC(C)C)NC(=O)[C@H](CCN)NC(=O)CC[C@@H](NS(=O)(=O)c1ccc(-c2ccccc2)cc1)C(=O)O` . Does its IC50 lie strictly below 0.2 nM?
Result: class 0
